test system: HEL; experiment: HEL cell growth inhibition (Sulforhodamine B protein-dye binding); assay type: cell-based, human; conditions: cell growth inhibition, two days of continuous treatment
quantity.measured: CC50 (µM)
Number only, in µM; omit the unit.

The molecule COc1cc(O)c2c(=O)c3cccc(O)c3n(C)c2c1OC showed CC50 equal to 41

* * *

experiment: HEL cell growth inhibition (Sulforhodamine B protein-dye binding); format: cell-based, human; conditions: human, HEL cells; cell growth inhibition, two days of continuous treatment
quantity.measured: CC50 at 2 days

Query COc1cc(O)c2c(=O)c3cc(OC(C)C)ccc3[nH]c2c1 [Compound 13, 1-Hydroxy-7-isopropoxy-3-methoxyacridone] yields CC50 at 2 days of 12 µM

Value of CC50 at 2 days reported for the molecule Nc1nc2c(ncn2COCCO)c(=O)[nH]1 is > 500 µM

Record summary for O=C(O)P(=O)(O)O : reported CC50 at 2 days = > 500 µM

// C=CCOc1cc(O)c2c(=O)c3cc(OC)ccc3[nH]c2c1 [Compound 10, 3-Allyloxy-1-hydroxy-7-methoxyacridone] : CC50 at 2 days value = > 50 µM

* * *

tested on: Vero; test: Vero cell growth inhibition (Sulforhodamine B protein-dye binding); assay type: cell-based, African green monkey; details: cell growth inhibition, two days of continuous treatment
quantity.measured: CC50 (µM)
Give the quantity in µM, number only.

Form field CC50 for item COc1cc(O)c2c(=O)c3cccc(O)c3n(C)c2c1OC on Vero: 27
